Data origin, for the record: the supplement of paper PMC3545927

- assaySystem: furin, P09958;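 further: purified furin at 1:10 enzyme:substrate in 50 mM HEPES pH 7.5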
- Sequence (P09958 whole entry): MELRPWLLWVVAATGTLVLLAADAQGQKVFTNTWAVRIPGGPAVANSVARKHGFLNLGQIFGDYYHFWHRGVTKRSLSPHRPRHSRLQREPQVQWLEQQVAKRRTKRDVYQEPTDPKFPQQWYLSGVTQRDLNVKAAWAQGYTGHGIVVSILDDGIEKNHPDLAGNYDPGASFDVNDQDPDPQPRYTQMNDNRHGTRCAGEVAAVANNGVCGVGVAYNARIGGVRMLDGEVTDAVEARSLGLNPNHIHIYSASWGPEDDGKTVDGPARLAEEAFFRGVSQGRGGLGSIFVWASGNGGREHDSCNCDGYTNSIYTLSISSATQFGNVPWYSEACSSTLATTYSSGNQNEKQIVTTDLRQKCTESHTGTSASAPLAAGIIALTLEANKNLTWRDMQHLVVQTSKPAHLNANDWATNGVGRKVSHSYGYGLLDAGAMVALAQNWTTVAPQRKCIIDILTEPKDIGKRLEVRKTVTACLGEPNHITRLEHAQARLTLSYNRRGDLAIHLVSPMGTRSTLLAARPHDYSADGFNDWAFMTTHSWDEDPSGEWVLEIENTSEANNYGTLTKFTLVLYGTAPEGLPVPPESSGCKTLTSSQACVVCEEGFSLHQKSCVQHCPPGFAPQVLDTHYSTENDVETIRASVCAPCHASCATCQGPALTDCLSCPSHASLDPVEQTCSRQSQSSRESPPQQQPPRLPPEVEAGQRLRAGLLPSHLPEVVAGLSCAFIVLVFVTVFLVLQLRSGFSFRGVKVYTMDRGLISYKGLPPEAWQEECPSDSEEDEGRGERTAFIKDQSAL
- testMethodNotes: furin cleavage Z-score vs untreated control; higher = more cleavage, active = 3.5 or more, inactive = 1 or less, 8 variable residues between constant flanks
- assayContext: 7.5 min
This is one part of the list. How many sequences the whole screen found active is unknown.
Result category, one only: active, inactive

**Query** What call does the record list for CATTPCSGSMAGNASASA [HC1926] ?
**Result** inactive

**Query** Outcome? CAKHMWNFISAGNASASA [HC1042]
**Result** inactive

**Query** Assay outcome for CAVVCFSMSYAGNASASA [HC86] : what was it?
**Result** inactive

**Query** Record request — test call for CAVVCISMSYAGNASASA [HC85]
**Result** inactive

**Query** Each sequence tested received a call. Report the one for CASTPCSAHHAGNASASA [HC2575] .
**Result** inactive

**Query** Name the outcome recorded for CATCPCSGSWAGNASASA [HC1860] in the assay.
**Result** inactive

**Query** Just curious, what result did CARRRRSLPEAGNASASA [FS-2796] get here?
**Result** active

**Query** Per the assay record, what outcome was assigned to CAGQPRRSRDAGNASASA [FS-430] ?
**Result** active

**Query** Each sequence tested received a call. Report the one for CAPAPPRRRAAGNASASA [FS-1041] .
**Result** inactive

**Query** Would you mind telling me which call this test gave CAHHQRRRRAAGNASASA [FS-907] ?
**Result** active

**Query** What call does the record list for CAYVVTSTWVAGNASASA [HC2149] ?
**Result** inactive

**Query** Would you mind telling me which call this test gave CAKALGLLQTAGNASASA [HC1026] ?
**Result** inactive

**Query** Outcome logged for CATLSRKSRDAGNASASA [FS-1173] in this assay:
**Result** active

**Query** Please share the test call associated with CAASCRPLTDAGNASASA [HC389] .
**Result** inactive

**Query** Each sequence tested received a call. Report the one for CAKDSRLSRDAGNASASA [FS-1017] .
**Result** inactive

**Query** Fill in: this test's call for CATLSRKKRAAGNASASA [FS-567] is ___
**Result** active

**Query** So what was the verdict on CAMKARPEKSAGNASASA [FS-1139] in this test?
**Result** inactive

**Query** Outcome? CAPSWGPTDPAGNASASA [HC213]
**Result** inactive

**Query** Tell me the assay call for CATTPCSCSWAGNASASA [HC1900] please.
**Result** inactive

**Query** For this sequence, state the assay outcome: CASWLRDIWDAGNASASA [HC1148]
**Result** inactive

**Query** Recorded test call requested for CARRRRCLNGAGNASASA [FS-1783]
**Result** active

**Query** Entry CAEFVVCCSMAGNASASA [HC2127] : call = ?
**Result** inactive

**Query** Kindly provide the recorded test outcome for the following sequence: CAKRRRSLHHAGNASASA [FS-1672]
**Result** active
